These data points were gathered from ChEMBL document CHEMBL1201862.

Kindly state GI50 for each of the entries shown.
Tested on: ACHN
Experiment: NCI tumour cell line growth inhibition, 48 h
Active and inactive are the calls of the source. Rule as the data show it: active = GI50 up to about 1.1 µM and inactive = higher.

[[record]]
compound = "Cc1ccc(S(=O)(=O)OC2CS[S+]([O-])CC2OS(=O)(=O)c2ccc(C)cc2)cc1 (stereo unspecified)"
tgt = "ACHN"
reported_metric = "GI50"
assay_value = "17 µM (inactive)"

[[record]]
compound = "CC(C)[C@H]1NC(=O)[C@H]2N=C(O[C@@H]2C)[C@@H]2CCCN2C(=O)[C@H](Cc2ccccc2)NC(=O)[C@@H]2CSC(=N2)[C@@H](Cc2ccccc2)NC(=O)[C@@H]2CSC1=N2"
tgt = "ACHN"
reported_metric = "GI50"
assay_value = "> 100 µM (inactive)"

[[record]]
compound = "CN(O)C(=O)CCC(NC(=O)CCC(N)C(=O)O)C(=O)NCC(=O)O (stereo unspecified)"
tgt = "ACHN"
reported_metric = "GI50"
assay_value = "> 100 µM (inactive)"

[[record]]
compound = "N=c1sc2ccccc2n1CC[S-].c1ccc2c(c1)sc1[n+]2CCS1"
tgt = "ACHN"
reported_metric = "GI50"
assay_value = "16.3 µM (inactive)"

[[record]]
compound = "COc1cc(/C=C/c2nc(NC(=S)Nc3ccccc3)nnc2C)cc(OC)c1OC"
tgt = "ACHN"
reported_metric = "GI50"
assay_value = "18.2 µM (inactive)"


Proceed to the following item.
I am curious: what GI50 value has been reported for COc1ccc2nc(-n3c(/C=C/c4ccccc4O)nc4ccccc4c3=O)sc2c1 ?
> 100 µM (inactive)
